# Target Desc: aorta of rat (Rattus norvegicus, UniProt P23944)
# Sequence (P23944 whole entry): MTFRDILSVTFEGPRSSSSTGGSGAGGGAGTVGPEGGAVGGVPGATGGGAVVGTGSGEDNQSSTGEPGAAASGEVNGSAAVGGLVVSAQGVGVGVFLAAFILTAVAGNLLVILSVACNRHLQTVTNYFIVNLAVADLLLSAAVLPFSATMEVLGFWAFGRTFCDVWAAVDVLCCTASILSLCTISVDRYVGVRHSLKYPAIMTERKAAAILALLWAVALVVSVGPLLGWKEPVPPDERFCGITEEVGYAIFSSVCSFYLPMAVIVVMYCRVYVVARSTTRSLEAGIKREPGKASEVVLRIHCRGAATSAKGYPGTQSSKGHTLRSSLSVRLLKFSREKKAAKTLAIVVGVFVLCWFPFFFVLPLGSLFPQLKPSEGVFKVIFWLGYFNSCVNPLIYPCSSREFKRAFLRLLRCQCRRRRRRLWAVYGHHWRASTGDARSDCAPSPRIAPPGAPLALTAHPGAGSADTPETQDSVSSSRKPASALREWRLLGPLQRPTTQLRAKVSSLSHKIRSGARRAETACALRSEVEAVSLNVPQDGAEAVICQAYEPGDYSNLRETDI
# Experimental Details: cell-based
# Run Conditions: pA2 vs phenylephrine, rat aorta; read-out: α-Blocking effect (pA2) (converted)
Attribute Measured: Kb (µM)
// units = µM; emit number, no label

> print(dat)
                                   compound                               target.desc  units.label  value.measured
1  COc1ccccc1OCC(C)NCC(O)COc1c[nH]c(=O)c2ccccc12.Cl (stereo not shown) [hydrochloride]  aorta of rat (Rattus norvegicus, UniProt P23944)           µM          0.0195
2  CC(COc1ccccc1)NCC(O)COc1c[nH]c(=O)c2ccccc12.Cl (stereo not shown) [hydrochloride]  aorta of rat (Rattus norvegicus, UniProt P23944)           µM          0.0269
3  CC(COc1ccc(O)cc1)NCC(O)COc1c[nH]c(=O)c2ccccc12 (stereo not shown)  aorta of rat (Rattus norvegicus, UniProt P23944)           µM           0.102

Here is another compound to look at.
Query :: Can you look up the measured Kb of COc1ccc(OCC(C)NCC(O)COc2c[nH]c(=O)c3ccccc23)c(OC)c1.Cl (stereo not shown) [hydrochloride] for me?
Result :: 0.0631

---

# Experimental Details: Acute toxicity of active compounds (LD50)
# Run Conditions: in vivo, po; P.O.; read-out: LD50 P.O.
Attribute Measured: LD50

Observe how each entry below is paired with its result.
> print(dat)
                                   compound  value.measured
1  COc1ccc(OCC(C)NCC(O)COc2c[nH]c(=O)c3ccccc23)c(OC)c1.Cl (stereo not shown)    > 2000 mg/kg
2  COc1ccc(OCC(C)NCC(O)COc2c[nH]c(=O)c3ccccc23)cc1.Cl (stereo not shown)    > 2000 mg/kg
3  CC(COc1ccc(N)cc1)NCC(O)COc1c[nH]c(=O)c2ccccc12 (stereo not shown)    > 2000 mg/kg

Kindly consider the entry below.
Query :: Tell me the measured LD50 of CC(COc1ccc(O)cc1)NCC(O)COc1c[nH]c(=O)c2ccccc12 (stereo not shown) , please.
Result :: > 2000 mg/kg

---

List of Kb values.
# Target Desc: right artrium of guinea pig (Cavia porcellus, UniProt H0W3H1)
# Construct: beat rate of a right artrium of guinea pig; from tissue; host or cells: guinea pig right atrium
# Sequence (H0W3H1 1-470): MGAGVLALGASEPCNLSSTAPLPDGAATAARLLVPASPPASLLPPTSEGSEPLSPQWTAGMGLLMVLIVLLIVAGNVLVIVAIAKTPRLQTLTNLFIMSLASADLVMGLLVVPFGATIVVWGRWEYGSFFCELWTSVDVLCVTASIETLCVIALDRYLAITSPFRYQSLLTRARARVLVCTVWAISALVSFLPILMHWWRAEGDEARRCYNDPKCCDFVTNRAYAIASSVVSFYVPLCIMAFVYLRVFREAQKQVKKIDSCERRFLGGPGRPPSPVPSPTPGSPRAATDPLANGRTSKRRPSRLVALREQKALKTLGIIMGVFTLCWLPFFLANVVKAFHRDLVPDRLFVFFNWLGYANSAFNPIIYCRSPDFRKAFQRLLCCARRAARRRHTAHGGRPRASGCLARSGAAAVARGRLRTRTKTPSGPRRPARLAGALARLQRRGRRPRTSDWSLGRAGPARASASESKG
# Experimental Details: β-blocking effect: antagonism of increase of beat rate of right atrium of guinea pig caused by isoproterenol
# Format: cell-based
# Run Conditions: pA2 vs isoproterenol, guinea pig right atrium; read-out: β-Blocking effect (pA2) (converted)
# Protocol: This was evaluated in terms of the effect antagonizing an increase of beat rate of a right artrium of guinea pig caused by isoproterenol. Efficiency of blocking by the corresponding compound is expressed in pA2 value (see Van Bossum, Arch. int. Pharmacodyn. Ther. 143, 299, 1963).
Lab book: enter the figure in nM, no units written.

These solved cases illustrate the format of a correct answer.
> print(dat)
                                   compound  value.measured
1  CC(COc1ccc(N)cc1)NCC(O)COc1c[nH]c(=O)c2ccccc12.Cl (centres unmarked) [hydrochloride]            7.24
2  CC(COc1ccccc1)NCC(O)COc1c[nH]c(=O)c2ccccc12.Cl (centres unmarked) [hydrochloride]            13.2

Query :: Look up Kb for this compound: COc1ccccc1OCC(C)NCC(O)COc1c[nH]c(=O)c2ccccc12.Cl (centres unmarked) [hydrochloride]
Result :: 10.7

Query :: Also CC(COc1ccc([N+](=O)[O-])cc1)NCC(O)COc1c[nH]c(=O)c2ccccc12.Cl (centres unmarked) [hydrochloride] , if possible.
Result :: 37.2

Query :: And the next one, COc1ccc(OCC(C)NCC(O)COc2c[nH]c(=O)c3ccccc23)c(OC)c1.Cl (centres unmarked) [hydrochloride] ?
Result :: 5.5

Query :: Same read-out for CC(COc1ccc(O)cc1)NCC(O)COc1c[nH]c(=O)c2ccccc12 (centres unmarked) ?
Result :: 2.95

Query :: Next entry: COc1ccc(OCC(C)NCC(O)COc2c[nH]c(=O)c3ccccc23)cc1.Cl (centres unmarked) [hydrochloride]
Result :: 9.55

Query :: Here is the next compound: CC(COc1ccccc1C(N)=O)NCC(O)COc1c[nH]c(=O)c2ccccc12 (centres unmarked)
Result :: 14.8

---

# Experimental Details: Acute toxicity of active compounds (LD50)
# Run Conditions: in vivo, iv; I.V.; read-out: LD50 I.V.
Measured LD50 accompanies every entry in the list below.
Express your answer in mg/kg, writing the number without its unit.

> print(dat)
                                   molecule  attribute.measured  units.label  value.measured
1  COc1ccc(OCC(C)NCC(O)COc2c[nH]c(=O)c3ccccc23)c(OC)c1.Cl (stereo not shown)                LD50        mg/kg             118
2  CC(COc1ccc(N)cc1)NCC(O)COc1c[nH]c(=O)c2ccccc12 (stereo not shown)                LD50        mg/kg            77.4
3  CC(COc1ccc(O)cc1)NCC(O)COc1c[nH]c(=O)c2ccccc12 (stereo not shown)                LD50        mg/kg             163

Then this molecule:
Query :: Could you tell me which LD50 is on file for COc1ccc(OCC(C)NCC(O)COc2c[nH]c(=O)c3ccccc23)cc1.Cl (stereo not shown) ?
Result :: 137
